The reported numbers originate from patent US20060257938A1.

Field: ΔR/DRAΔ2 AA. Provide a value for each of the molecules that follow.
- Run description: Probe fluorescence ratio response to arachidonic acid relative to ADIFAB2
- Format: binding
- Assay setup: Table 5; Arachidonic acid
// no unit string in output, number only

Inquiry: Note ΔR/DRAΔ2 AA for the molecule shown: L2P8F11: FABP probe, substitution A73I vs SEQ ID NO: 2 (protein, listed as Rattus norvegicus, PEPTIDE (1)...(131) wild-type rat intestinal fatty acid binding protein) AFDGTWKVDRNENYEKFMEKMGINVVKRKLGAHDNLKLTITQEGNKFTVKESSNFRNIDVVFELGVDFAYSLIDGTELTGTWTMEGNKLVGKFKRVDNGKELIAVREISGNELIQTYTYEGVEAKRIFKKE
Reply text: 0.4

Inquiry: Note ΔR/DRAΔ2 AA for the molecule shown: L2P7F4: FABP probe, substitutions M18V G31V A73I vs SEQ ID NO: 2 (protein, listed as Rattus norvegicus, PEPTIDE (1)...(131) wild-type rat intestinal fatty acid binding protein) AFDGTWKVDRNENYEKFVEKMGINVVKRKLVAHDNLKLTITQEGNKFTVKESSNFRNIDVVFELGVDFAYSLIDGTELTGTWTMEGNKLVGKFKRVDNGKELIAVREISGNELIQTYTYEGVEAKRIFKKE
Reply text: 0.8
